# assay system: IMP-1 (Serratia marcescens)
# Sequence (P52699 whole entry, looked up): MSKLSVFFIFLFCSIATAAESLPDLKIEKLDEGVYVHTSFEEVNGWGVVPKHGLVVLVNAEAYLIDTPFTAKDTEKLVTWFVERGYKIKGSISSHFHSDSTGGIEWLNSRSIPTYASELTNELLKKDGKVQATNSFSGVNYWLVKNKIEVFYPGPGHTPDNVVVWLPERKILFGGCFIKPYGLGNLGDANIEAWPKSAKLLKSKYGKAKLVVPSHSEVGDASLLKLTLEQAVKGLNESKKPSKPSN
# protocol text: biochemical
# Format: biochemical
# condition description: IMP-1 enzyme, CCF2-FA substrate; read-out: IMP-1 IC50
readout: IC50 (nM)
Numbers only, in nM.

Each molecule below has a recorded value; state its IC50.
1. NC[C@H]1CC[C@@H](Cc2ccc(-c3ccc(C4CNC4)cc3)c(-c3nnn[nH]3)c2S(N)(=O)=O)CC1
2. N=C(N)NCc1ccc(-c2ccc(CC3CCNCC3)c(S(N)(=O)=O)c2-c2nn[nH]n2)cc1
3. Nc1nc2cc(-c3ccc(C(F)(F)F)c(S(N)(=O)=O)c3-c3nnn[nH]3)ccc2s1
4. NS(=O)(=O)c1c(C(F)(F)F)ccc([C@H]2CC[C@H](NC3CCCNCC3)CC2)c1-c1nnn[nH]1 (stereo partly shown)
5. NCCC1CCC(N[C@H]2CC[C@H](c3ccc(C(F)(F)F)c(S(N)(=O)=O)c3-c3nnn[nH]3)CC2)CC1 (stereo partly shown) [Example 693]
6. Nc1nc2ccc(-c3ccc(C(F)(F)F)c(S(N)(=O)=O)c3-c3nnn[nH]3)cc2[nH]1

1: 21; 2: 51.7; 3: 2.52; 4: 42.3; 5: 97.8; 6: 7.2

Quick one: IC50 for `NCCCN1CCC(c2ccc(-c3cccc(S(N)(=O)=O)c3-c3nnn[nH]3)cc2)CC1` ?
36.3
